- MEASURED_ON: isolated recombinant JAK2 kinase domain (Homo sapiens (Human), UniProt O60674)
- Sequence (O60674 849-1124): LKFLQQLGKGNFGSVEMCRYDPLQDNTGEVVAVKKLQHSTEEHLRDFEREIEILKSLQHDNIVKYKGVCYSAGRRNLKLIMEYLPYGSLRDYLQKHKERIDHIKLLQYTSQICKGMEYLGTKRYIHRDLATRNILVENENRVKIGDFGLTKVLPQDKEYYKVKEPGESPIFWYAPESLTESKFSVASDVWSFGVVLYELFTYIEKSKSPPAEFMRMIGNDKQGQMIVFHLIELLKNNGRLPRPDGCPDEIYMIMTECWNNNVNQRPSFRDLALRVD
- EXPERIMENT_NOTES: JAK2 enzyme assay (Caliper LabChip, peptide phosphorylation)
- CONDITION_PARAMETERS: 25 μM ATP
TEST_READOUT: pKi
Value format note: pKi is -log10 of concentration (mol/L); just state the number.

COMPOUND: CN(CC(F)(F)F)C1CCN(C(=O)c2ccc(-n3cc(NC(=O)c4cnn5cccnc45)c(-c4cc(Cl)ccc4OC(F)F)n3)cc2)CC1
pKi: 8.48
--
COMPOUND: CC(C)(C)OC(=O)N1CC[C@H](n2cc(NC(=O)c3cnn4cccnc34)c(-c3cc(Cl)ccc3OC(F)F)n2)[C@@H](O)C1 (single isomer, unassigned)
pKi: 8.43
--
COMPOUND: CN(CC1(C#N)CCCCC1)C1CCN(c2nc(-c3cc(Cl)ccc3OC(F)F)c(NC(=O)c3cnn4cccnc34)s2)CC1
pKi: 8.38
--
COMPOUND: O=C(Nc1cn(CCNCc2ccc(O)cc2)nc1-c1cc(Cl)ccc1OC(F)F)c1cnn2cccnc12
pKi: 9.64
--
COMPOUND: O=C(Nc1cn(CC(=O)N2CCC[C@H]2C(O)CO)nc1-c1cc(Cl)ccc1OC(F)F)c1cnn2cccnc12 (some centres unmarked)
pKi: 9.21
--
COMPOUND: NC1CCC(=CCn2cc(NC(=O)c3cnn4cccnc34)c(-c3cc(Cl)ccc3OC(F)F)n2)CC1 (centres unmarked)
pKi: 8.75
--
COMPOUND: CN(C1CCN(C(=O)Cn2cc(NC(=O)c3cnn4cccnc34)c(-c3cc(Cl)ccc3OC(F)F)n2)CC1)C1(C#N)CC1
pKi: 9.13
--
COMPOUND: O=C(Nc1cn(C2CCN(CCCN3CCS(=O)(=O)CC3)CC2)nc1-c1cc(Cl)ccc1OC(F)F)c1cnn2cccnc12
pKi: 9.89

API: the following record is the query input.
QUERY: Quick check: pKi of CN(Cc1cccc(Oc2ccccc2)c1)C1CCN(C(=O)Cn2cc(NC(=O)c3cnn4cccnc34)c(-c3cc(Cl)ccc3OC(F)F)n2)CC1 ?
RESULT: 8.67
